// data source = patent US5332726A

target: fixed activated platelets (Homo sapiens, UniProt P05106+P08514); experiment: Platelet Aggregation Assay (fibrinogen-mediated aggregation of fixed-activated platelets); type: cell-based; conditions: read-out: Inhibition of Fibrinogen Mediated Platelet Aggregation % inhibition at 25 μM
Sequence (P08514 32-1039): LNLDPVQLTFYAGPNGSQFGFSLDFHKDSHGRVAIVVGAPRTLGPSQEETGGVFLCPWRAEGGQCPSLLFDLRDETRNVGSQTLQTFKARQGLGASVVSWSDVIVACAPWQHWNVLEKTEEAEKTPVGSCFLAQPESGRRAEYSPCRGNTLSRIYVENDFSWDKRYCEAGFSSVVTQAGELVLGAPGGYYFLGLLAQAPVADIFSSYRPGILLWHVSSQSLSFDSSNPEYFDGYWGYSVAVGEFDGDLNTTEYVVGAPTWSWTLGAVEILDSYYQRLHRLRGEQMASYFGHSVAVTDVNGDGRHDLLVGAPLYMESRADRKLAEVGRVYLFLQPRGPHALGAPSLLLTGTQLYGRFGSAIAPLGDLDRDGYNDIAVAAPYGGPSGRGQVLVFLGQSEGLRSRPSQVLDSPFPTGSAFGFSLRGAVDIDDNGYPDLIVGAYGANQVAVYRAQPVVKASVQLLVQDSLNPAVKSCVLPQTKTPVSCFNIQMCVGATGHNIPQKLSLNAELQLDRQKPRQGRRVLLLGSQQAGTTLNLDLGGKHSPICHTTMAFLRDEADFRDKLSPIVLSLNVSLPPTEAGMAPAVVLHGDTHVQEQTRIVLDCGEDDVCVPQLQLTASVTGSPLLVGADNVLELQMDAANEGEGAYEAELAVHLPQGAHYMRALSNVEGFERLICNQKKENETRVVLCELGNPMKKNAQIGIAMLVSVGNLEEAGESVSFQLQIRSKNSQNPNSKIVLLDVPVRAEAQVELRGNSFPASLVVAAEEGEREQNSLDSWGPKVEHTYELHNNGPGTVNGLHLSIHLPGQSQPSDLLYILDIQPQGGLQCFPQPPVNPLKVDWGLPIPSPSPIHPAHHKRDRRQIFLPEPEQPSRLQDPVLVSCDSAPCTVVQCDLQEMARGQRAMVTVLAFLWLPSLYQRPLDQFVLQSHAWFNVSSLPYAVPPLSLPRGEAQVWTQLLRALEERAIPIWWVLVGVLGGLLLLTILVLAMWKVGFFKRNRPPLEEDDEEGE
Sequence (P05106 27-788): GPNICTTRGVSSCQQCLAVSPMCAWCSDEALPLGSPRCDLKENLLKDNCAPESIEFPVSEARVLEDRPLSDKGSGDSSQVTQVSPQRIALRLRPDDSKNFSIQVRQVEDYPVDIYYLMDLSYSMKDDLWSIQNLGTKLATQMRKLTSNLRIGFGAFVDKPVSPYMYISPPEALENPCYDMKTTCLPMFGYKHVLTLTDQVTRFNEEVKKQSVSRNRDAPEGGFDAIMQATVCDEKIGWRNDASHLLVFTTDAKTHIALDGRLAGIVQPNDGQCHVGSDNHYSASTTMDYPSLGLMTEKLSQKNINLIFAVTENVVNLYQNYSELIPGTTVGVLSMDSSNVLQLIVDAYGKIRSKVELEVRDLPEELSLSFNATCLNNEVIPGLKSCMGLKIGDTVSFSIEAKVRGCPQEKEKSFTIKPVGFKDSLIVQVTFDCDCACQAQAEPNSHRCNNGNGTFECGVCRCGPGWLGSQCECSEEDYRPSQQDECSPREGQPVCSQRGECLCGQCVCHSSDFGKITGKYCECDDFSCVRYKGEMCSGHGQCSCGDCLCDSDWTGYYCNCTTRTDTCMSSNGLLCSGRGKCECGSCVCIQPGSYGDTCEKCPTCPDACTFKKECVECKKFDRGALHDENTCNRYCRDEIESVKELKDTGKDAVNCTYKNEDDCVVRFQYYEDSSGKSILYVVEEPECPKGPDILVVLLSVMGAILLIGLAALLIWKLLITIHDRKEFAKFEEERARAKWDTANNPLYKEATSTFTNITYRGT
metric: inhibition at 25 µM (%)

CCN(CC(=O)N[C@@H](CC(=O)O)C(=O)N[C@@H](CC(C)C)C(=O)O)C(=O)CCCCCNC(=N)N ... 95.5
CC(C)[C@H](NC(=O)[C@H](CC(=O)O)NC(=O)CCCCCCCCNC(=N)N)C(=O)O [9-guanidinononanoyl-L-aspartyl-L-valine] ... 96
CCN(CC(=O)N[C@@H](CC(=O)O)C(=O)N[C@H](C(=O)O)C(C)C)C(=O)CCCCNC(=N)N ... 91
N=C(N)NCCCCCCCCC(=O)N[C@@H](CC(=O)O)C(=O)N[C@@H](CCCNC(=N)N)C(=O)OC1CCCCC1 ... 91
CN(CC(=O)N[C@@H](CC(=O)O)C(=O)N[C@@H](Cc1c[nH]c2ccccc12)C(=O)O)C(=O)CCCCCNC(=N)N ... 89
